B1: NFE2L1 (parent)
chain: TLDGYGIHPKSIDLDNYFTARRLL

- Variants of: B1
- assay.notes: protein stability index of a GFP-peptide fusion (GPS, HEK-293T) (PSI 1-6); higher = more stable;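 further: lentivirally expressed fusions sorted by FACS into six bins by GFP to DsRed ratio, PSI derived from sequencing read proportions per bin multiplied by bin number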
- recorded.conditions: c terminus: a fixed tail appended
reported.metric: protein stability index

- mutation.spec: "Y17L"
  reported.metric: "protein stability index"
  recorded.result: 2.06
- mutation.spec: "T19H"
  reported.metric: "protein stability index"
  recorded.result: 2.32
- mutation.spec: "Y17F"
  reported.metric: "protein stability index"
  recorded.result: 3.17
- mutation.spec: "L14N"
  reported.metric: "protein stability index"
  recorded.result: 2.17
- mutation.spec: "D15V"
  reported.metric: "protein stability index"
  recorded.result: 1.72
- mutation.spec: "L24E"
  reported.metric: "protein stability index"
  recorded.result: 2.79
- mutation.spec: "R22D"
  reported.metric: "protein stability index"
  recorded.result: 2.05
- mutation.spec: "D15R"
  reported.metric: "protein stability index"
  recorded.result: 2.74
- mutation.spec: "R21T"
  reported.metric: "protein stability index"
  recorded.result: 1.56
- mutation.spec: "D3P"
  reported.metric: "protein stability index"
  recorded.result: 1.62
- mutation.spec: "Y17C"
  reported.metric: "protein stability index"
  recorded.result: 1.71

Reference source: the supplement of paper PMC10567573
